system: FLT3(D835Y) (Homo sapiens (Human), UniProt P36888, D835Y)
assay_remarks: Binding to FLT3(D835Y) mutant (DiscoveRx)
Method: Selected compounds were also tested for their binding properties against FLT3 kinase mutants using suitable in vitro assays (performed according to standard assays at DiscoveRx Corporation). The compounds show strong binding to the main oncogenic mutants of the FLT3 kinase, see Table 1B.
Counter-ions that a name gives are not always drawn.
measurement_label: Kd
Give the value; after it, write the unit.

### Prompt Which measured Kd value corresponds to CCn1c(N2CCNCC2)nc2c([N+](=O)[O-])c(Br)c(Br)cc21 [Example 1A, hydrochloride] ?
### Response 0.046 µM
